# credit: PubChem BioAssay (NCI)

- assayNotes: NCI Yeast Anticancer Drug Screen. Data for the mec2-1 strain (AID 157)
- measurementConditions: S. cerevisiae mec2-1 strain, at 50.0 µM (retest, dose inferred, filed as 5.0), stronger effect = higher value
This is part of a sample that, as a whole, favours compounds with a hit. Of some 79,000 tested, about 15% had one in any assay.
property: growth inhibition (%)
Numbers only; they are read as %.

compound	property	resultValue
CCOC(=O)c1c(N)c(=O)n2c3c(cccc13)CC2	growth inhibition	98
CC(C)C(Sc1nc(-c2ccccc2)c(-c2ccccc2)[nH]1)C(=O)NN (stereo not given)	growth inhibition	96
Cc1ccc(Sc2ccc3ccccc3n2)cc1	growth inhibition	46
COc1ccc(C2=C(Cl)C(=O)N(c3ccccc3Cl)C(=O)C2(Cl)Cl)cc1	growth inhibition	95
Nc1ccc2c(c1)CCc1ccccc1-2	growth inhibition	10

In: Item COc1ccc(C(c2ccc(OC)cc2)c2ccccc2C(=O)O)cc1 : provide growth inhibition
Out: 31

In: Please give the documented growth inhibition of COc1ccc(C2=C(Cl)C(=O)N(c3ccc(OC)cc3)C(=O)C2(Cl)Cl)cc1
Out: 87

In: Consider the compound CCC(CC=C(C)C)(CC=C(C)C)c1ccncc1 (tested in a mixture with another compound) . State its measured growth inhibition.
Out: 76

In: Quickly give me recorded growth inhibition for CCc1nc(N)nc(N)c1-c1ccc(N2CCCCC2)c([N+](=O)[O-])c1
Out: 4

In: Identify the reported growth inhibition for the following entry. COc1ccc(C2COc3cc(OC(C)=O)c(OC(C)=O)cc3C2)cc1 (stereo not given)
Out: 95

In: Check the records and state growth inhibition for OCCSC(=S)Nc1ccc(Cl)c(Cl)c1
Out: 100

In: Provide growth inhibition value for the following compound: COC(=O)c1cccc2c3ccccc3c3ccccc3c12
Out: 98

In: Consider the compound CCOC(=O)C1SC(=S)N(C)C1=O (stereo not given) . State its measured growth inhibition.
Out: 99

In: Give the value of growth inhibition reported for the following: Nc1ccc2c(c1)S(=O)(=O)c1cc(O)ccc1O2
Out: 20

In: Specify growth inhibition for O=C1CCCC2c3ccccc3NC12 (stereo not given) and stop.
Out: -57

In: Input COC(=O)c1cccc2cccc(C(=O)Nc3ccc(C)cc3C)c12 , output reported growth inhibition.
Out: 99

In: State its growth inhibition for this compound: CC(C)(C)C(OC(=O)Nc1ccccc1)C(C)(C)C
Out: -5

In: Answer with reported growth inhibition of N#C/C(=C1/C(=O)c2ccccc2-c2ccccc21)c1ccccc1
Out: 99

In: Consider the compound CO[C@H]1C[C@@H]2CC[C@@H](C)[C@@](O)(O2)C(=O)C(=O)N2CCCC[C@H]2C(=O)O[C@H]([C@H](C)C[C@@H]2CC[C@@H](OC(=O)C(C)(CO)CO)[C@H](OC)C2)CC(=O)[C@H](C)/C=C(\C)[C@@H](O)[C@@H](OC)C(=O)[C@H](C)C[C@H](C)/C=C/C=C/C=C/1C and give its recorded growth inhibition.
Out: 98

In: Provide growth inhibition value for the following compound: Oc1ccc(C2SC(c3ccc(O)cc3)SC(c3ccc(O)cc3)S2)cc1 (stereo not given)
Out: 96

In: Using the record for CN(C)Cc1ccccc1C(=O)C(=O)c1ccccc1CN(C)C , state its measured growth inhibition.
Out: 70

In: State its growth inhibition for this compound: c1ccc(Nc2cccc3ccccc23)cc1
Out: 81

In: Report growth inhibition for O=C1c2sccc2-c2cccc3cccc1c23 (tested in a mixture with another compound)
Out: 99

In: Return growth inhibition (reported value) for this compound: CCCCNC(=O)OCCN=C1c2ccccc2C(Br)C(Br)c2ccccc21 (stereo not given)
Out: 23

In: Entry O=[N+]([O-])c1ccccc1N=Nc1c(O)[nH]c2cccc(C(F)(F)F)c12 needs its growth inhibition filled in; supply it.
Out: 81
